B1: NF2 (merlin) isoform 7, human, full length (507 aa, lacks exons 2-3 = isoform-1 residues 39-121; exon-16 C-terminus), P35240-4 (parent)
chain: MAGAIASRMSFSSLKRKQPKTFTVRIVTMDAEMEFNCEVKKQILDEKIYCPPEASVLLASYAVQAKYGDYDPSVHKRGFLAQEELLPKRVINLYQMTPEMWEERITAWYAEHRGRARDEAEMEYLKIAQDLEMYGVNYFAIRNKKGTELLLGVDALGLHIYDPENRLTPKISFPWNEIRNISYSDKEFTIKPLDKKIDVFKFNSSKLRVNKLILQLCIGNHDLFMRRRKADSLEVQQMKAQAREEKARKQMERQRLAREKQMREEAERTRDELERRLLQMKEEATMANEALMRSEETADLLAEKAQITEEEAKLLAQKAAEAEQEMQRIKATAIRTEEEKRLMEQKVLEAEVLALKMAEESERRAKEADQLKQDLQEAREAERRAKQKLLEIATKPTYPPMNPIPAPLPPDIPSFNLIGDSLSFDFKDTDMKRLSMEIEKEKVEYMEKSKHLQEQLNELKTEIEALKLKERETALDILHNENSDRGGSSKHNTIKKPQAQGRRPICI

# Variants of: B1
# experimental_details: reverse yeast two-hybrid deep mutational scan (rY2H-seq): NF2 isoform 7 mutant library as bait mated with wild-type prey strains; selection on medium lacking adenine for non-interacting pairs; NextSeq paired-end sequencing; enrichment vs …
# settings: with NF2 C-terminal domain (wild type; homomeric NF2-NF2 interaction), P35240; yeast diploids after mating (RBait_S3 x RPrey_S3), 30 °C, selection for reporter genes on NB agar; human ABL2 co-expressed as the kinase-dead K35M mutant …; HIGHER = WEAKER BINDING (the opposite of display enrichments): higher = stronger loss of interaction: reverse Y2H selects yeast in which bait and prey do NOT interact (growth without adenine), so a …; hits-only table; partner unresolved; scale: rY2H score; numbering: uniprot, sequence starts at 1
Give Met when the value for enrichment is at least 2. Give Not met when it is less.

The following variants have reported results that may help.
>>> discrete_label("Q373E")
"Not met"
>>> discrete_label("R341E")
"Met"
>>> discrete_label("G157L")
"Not met"
>>> discrete_label("H75S")
"Met"
>>> discrete_label("K260A")
"Met"
>>> discrete_label("M238A")
"Met"
>>> discrete_label("T308D")
"Met"
>>> discrete_label("E321A")
"Not met"
>>> discrete_label("E309K")
"Not met"
>>> discrete_label("E339L")
"Not met"

Kindly determine if enrichment recorded for R383K is above or exactly 2.
Not met

Kindly determine if enrichment recorded for R293K is above or exactly 2.
Met

Kindly determine if enrichment recorded for D369K is above or exactly 2.
Met

Kindly determine if enrichment recorded for N288A is above or exactly 2.
Not met

Measured values drawn from paper PMC10244618 for this set.
